- Study target: SARS-CoV-2 spike RBD (SARS-CoV-2, UniProt P0DTC2 319-541)
- Protocol details: EMSA
- Measurement setup: protein: commercial
Please provide measured Kd for the entries that follow.
Respond with the figure and its unit, in that order.

[ask] Give the measured Kd of TaG34A (structured_RNA) RNA: GGCGACAUUUGUAAUUCCUGGACCGAUACUUCCAUCAGGACAGAGGUUGCCA .
[reply] 55.5 µM

[ask] Give the measured Kd of TaC23G (structured_RNA) RNA: GGCGACAUUUGUAAUUCCUGGAGCGAUACUUCCGUCAGGACAGAGGUUGCCA .
[reply] 168 µM

[ask] Give the measured Kd of TaC23A (structured_RNA) RNA: GGCGACAUUUGUAAUUCCUGGAACGAUACUUCCGUCAGGACAGAGGUUGCCA .
[reply] 55.7 µM
